measurement.target: T1, TNFR1 (Homo sapiens, UniProt P19438)
T1 chain: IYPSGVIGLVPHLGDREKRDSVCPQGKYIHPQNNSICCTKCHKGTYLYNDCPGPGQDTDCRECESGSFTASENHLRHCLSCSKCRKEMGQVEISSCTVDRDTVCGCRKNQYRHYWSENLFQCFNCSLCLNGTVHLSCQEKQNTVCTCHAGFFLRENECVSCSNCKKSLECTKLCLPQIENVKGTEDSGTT
protocol.text: yeast display SC50
quantity.measured: apparent Kd (screen) (nM)

| binder | readout.number |
| --- | --- |
| E86T (designed binder) MTLQELLREEALRRAEAEAFRYALELLAEKFPEQKEYLLDLAEEIESQIRSLSGVDVEDVRKFLDKEWAWVKELLAEHPAELAEVTAARAARLAELRAEVEAKVAA | 0.718 |
| F31T (designed binder) MTLQELLREEALRRAEAEAFRYALELLAEKTPEQKEYLLDLAEEIESQIRSLSGVDVEDVRKFLDKEWAWVKELLAEHPAELAEVEAARAARLAELRAEVEAKVAA | 0.593 |
| A105Y (designed binder) MTLQELLREEALRRAEAEAFRYALELLAEKFPEQKEYLLDLAEEIESQIRSLSGVDVEDVRKFLDKEWAWVKELLAEHPAELAEVEAARAARLAELRAEVEAKVYA | 0.79 |
| R97N (designed binder) MTLQELLREEALRRAEAEAFRYALELLAEKFPEQKEYLLDLAEEIESQIRSLSGVDVEDVRKFLDKEWAWVKELLAEHPAELAEVEAARAARLAELNAEVEAKVAA | 0.539 |
| A19T (designed binder) MTLQELLREEALRRAEAETFRYALELLAEKFPEQKEYLLDLAEEIESQIRSLSGVDVEDVRKFLDKEWAWVKELLAEHPAELAEVEAARAARLAELRAEVEAKVAA | 0.718 |
| E29T (designed binder) MTLQELLREEALRRAEAEAFRYALELLATKFPEQKEYLLDLAEEIESQIRSLSGVDVEDVRKFLDKEWAWVKELLAEHPAELAEVEAARAARLAELRAEVEAKVAA | 0.653 |
| A91W (designed binder) MTLQELLREEALRRAEAEAFRYALELLAEKFPEQKEYLLDLAEEIESQIRSLSGVDVEDVRKFLDKEWAWVKELLAEHPAELAEVEAARAWRLAELRAEVEAKVAA | 0.718 |
| L96Y (designed binder) MTLQELLREEALRRAEAEAFRYALELLAEKFPEQKEYLLDLAEEIESQIRSLSGVDVEDVRKFLDKEWAWVKELLAEHPAELAEVEAARAARLAEYRAEVEAKVAA | 0.49 |
| R92K (designed binder) MTLQELLREEALRRAEAEAFRYALELLAEKFPEQKEYLLDLAEEIESQIRSLSGVDVEDVRKFLDKEWAWVKELLAEHPAELAEVEAARAAKLAELRAEVEAKVAA | 0.593 |
